- System: Nucleic Acid
- protocol: In vitro ability to inhibit HSV DNA polymerase activity in vitro using activated calf thymus DNA as atemplate at dose 100 ug/mL
- Type: nucleic-acid assay
- experimental.parameters: herpes simplex virus
quantity.measured: inhibition (%)
Write down the numeric answer in % and omit the unit.

Some molecules with recorded inhibition:
>  <molecule>
Cl.Cl.Cn1cc(NC(=O)c2cc(NC(=O)c3cc(NC=O)cn3C)cn2C)cc1C(=O)NCCC(=N)N

>  <quantity.measured>
inhibition

>  <unit.of.measure>
%

>  <observed.value>
85

$$$$
>  <molecule>
CC(CC(=N)N)NC(=O)c1cc(NC(=O)c2cc(NC(=O)c3cc(NC(=O)CN=C(N)N)cn3C)cn2C)cn1C.Cl.Cl (stereo unspecified)

>  <quantity.measured>
inhibition

>  <unit.of.measure>
%

>  <observed.value>
83

$$$$
>  <molecule>
Cl.Cn1cc(NC(=O)c2cc(NC(=O)c3cc(NC(=O)CN=C(N)N)cn3C)cn2C)cc1C(=O)NCCC#N

>  <quantity.measured>
inhibition

>  <unit.of.measure>
%

>  <observed.value>
68

$$$$

Task item: What inhibition value was documented for this molecule, Cl.Cl.Cn1cc(NC(=O)c2cc(NC(=O)CNC(=N)N)cn2C)cc1C(=O)NCCC(=N)N ?
Reply: 78

Task item: What inhibition value was documented for this molecule, Cl.Cl.Cn1cc(NC(=O)c2cc(NC(=O)c3cc(NC(=O)CN=C(N)N)cn3C)cn2C)cc1C(=O)NCCC(=N)N ?
Reply: 93

Task item: What inhibition value was documented for this molecule, Cl.Cl.Cn1cc(NC(=O)c2cc(NC(=O)c3cc(NC(=O)CN=C(N)N)cn3C)cn2C)cc1C(=O)NCC(=N)N ?
Reply: 89
